- System: Staphylococcus aureus
- method: Antibacterial activity against methicillin-resistant Staphylococcus aureus ATCC 33591 by agar dilution method
- Format: functional
I'd be grateful if you could share measured MIC for these entries.
Answer with a number only, understood to be in µg/mL.

Exercise: Look up and state reported MIC for `CCCNC(=N)c1ccc2cc(-c3ccc(Oc4ccc(-c5cc6ccc(C(=N)NCCC)cc6[nH]5)cc4)cc3)[nH]c2c1`
Key: 16

Exercise: Look up and state reported MIC for `N=C(NC1CC1)c1ccc2cc(-c3ccc(Oc4ccc(-c5cc6ccc(C(=N)NC7CC7)cc6[nH]5)cc4)cc3)[nH]c2c1`
Key: 4

Exercise: Look up and state reported MIC for `CC1CCN(C(=N)c2ccc3cc(-c4ccc(Oc5ccc(-c6cc7ccc(C(=N)N8CCC(C)CC8)cc7[nH]6)cc5)cc4)[nH]c3c2)CC1`
Key: 16

Exercise: Look up and state reported MIC for `N=C(c1ccc2cc(-c3ccc(Oc4ccc(-c5cc6ccc(C(=N)N7CCC(N8CCCC8)CC7)cc6[nH]5)cc4)cc3)[nH]c2c1)N1CCC(N2CCCC2)CC1`
Key: 8

Exercise: Look up and state reported MIC for CC1CC(C)CN(C(=N)c2ccc3cc(-c4ccc(Oc5ccc(-c6cc7ccc(C(=N)N8CC(C)CC(C)C8)cc7[nH]6)cc5)cc4)[nH]c3c2)C1 (stereo unspecified)
Key: 64

Exercise: Look up and state reported MIC for `N=C(c1ccc2cc(-c3ccc(Oc4ccc(-c5cc6ccc(C(=N)N7CCCCC7)cc6[nH]5)cc4)cc3)[nH]c2c1)N1CCCCC1`
Key: 16

Exercise: Look up and state reported MIC for `N=C(c1ccc2cc(-c3ccc(Oc4ccc(-c5cc6ccc(C(=N)N7CCCC7)cc6[nH]5)cc4)cc3)[nH]c2c1)N1CCCC1`
Key: 1

Exercise: Look up and state reported MIC for `CNC(=N)c1ccc2cc(-c3ccc(Oc4ccc(-c5cc6ccc(C(=N)NC)cc6[nH]5)cc4)cc3)[nH]c2c1`
Key: 1

Exercise: Look up and state reported MIC for CCC(C)NC(=N)c1ccc2cc(-c3ccc(Oc4ccc(-c5cc6ccc(C(=N)NC(C)CC)cc6[nH]5)cc4)cc3)[nH]c2c1 (stereo unspecified)
Key: 2

Exercise: Look up and state reported MIC for `CCC(CC)NC(=N)c1ccc2cc(-c3ccc(Oc4ccc(-c5cc6ccc(C(=N)NC(CC)CC)cc6[nH]5)cc4)cc3)[nH]c2c1`
Key: 2

Exercise: Look up and state reported MIC for `CCNC(=N)c1ccc2cc(-c3ccc(Oc4ccc(-c5cc6ccc(C(=N)NCC)cc6[nH]5)cc4)cc3)[nH]c2c1`
Key: 1

Exercise: Look up and state reported MIC for `CN(C)C(=N)c1ccc2cc(-c3ccc(Oc4ccc(-c5cc6ccc(C(=N)N(C)C)cc6[nH]5)cc4)cc3)[nH]c2c1`
Key: 0.25

Exercise: Look up and state reported MIC for `N=C(NC1CCCCC1)c1ccc2cc(-c3ccc(Oc4ccc(-c5cc6ccc(C(=N)NC7CCCCC7)cc6[nH]5)cc4)cc3)[nH]c2c1`
Key: 2

Exercise: Look up and state reported MIC for `CC(C)NC(=N)c1ccc2cc(-c3ccc(Oc4ccc(-c5cc6ccc(C(=N)NC(C)C)cc6[nH]5)cc4)cc3)[nH]c2c1`
Key: 1

Exercise: Look up and state reported MIC for `N=C(c1ccc2cc(-c3ccc(Oc4ccc(-c5cc6ccc(C(=N)N7CCC7)cc6[nH]5)cc4)cc3)[nH]c2c1)N1CCC1`
Key: 0.5

Exercise: Look up and state reported MIC for `N=C(NC1CCCC1)c1ccc2cc(-c3ccc(Oc4ccc(-c5cc6ccc(C(=N)NC7CCCC7)cc6[nH]5)cc4)cc3)[nH]c2c1`
Key: 64

====

- System: Acinetobacter calcoaceticus
- method: Antibacterial activity against Acinetobacter calcoaceticus ATCC 19606 by agar dilution method
- Type: functional
property-name: MIC

Exercise: Look up and state reported MIC for `CC(C)NC(=N)c1ccc2cc(-c3ccc(Oc4ccc(-c5cc6ccc(C(=N)NC(C)C)cc6[nH]5)cc4)cc3)[nH]c2c1`
Key: 128 µg/mL

Exercise: Look up and state reported MIC for `N=C(NC1CCCC1)c1ccc2cc(-c3ccc(Oc4ccc(-c5cc6ccc(C(=N)NC7CCCC7)cc6[nH]5)cc4)cc3)[nH]c2c1`
Key: > 128 µg/mL

Exercise: Look up and state reported MIC for `CCCNC(=N)c1ccc2cc(-c3ccc(Oc4ccc(-c5cc6ccc(C(=N)NCCC)cc6[nH]5)cc4)cc3)[nH]c2c1`
Key: > 128 µg/mL

Exercise: Look up and state reported MIC for C[C@H]1COc2c(N3CCN(C)CC3)c(F)cc3c(=O)c(C(=O)O)cn1c23.C[C@H]1COc2c(N3CCN(C)CC3)c(F)cc3c(=O)c(C(=O)O)cn1c23.O [LEVOFLOXACIN]
Key: 0.25 µg/mL

Exercise: Look up and state reported MIC for `N=C(NC1CCCCC1)c1ccc2cc(-c3ccc(Oc4ccc(-c5cc6ccc(C(=N)NC7CCCCC7)cc6[nH]5)cc4)cc3)[nH]c2c1`
Key: 64 µg/mL

Exercise: Look up and state reported MIC for `N=C(c1ccc2cc(-c3ccc(Oc4ccc(-c5cc6ccc(C(=N)N7CCCC7)cc6[nH]5)cc4)cc3)[nH]c2c1)N1CCCC1`
Key: > 128 µg/mL

====

I'd be grateful if you could share measured MIC for these entries.
- System: Staphylococcus aureus
- method: Antibacterial activity against methicillin-resistant Staphylococcus aureus 09-13 by agar dilution method
- Type: functional
Answer with a number only, understood to be in µg/mL.

Exercise: Enter recorded MIC with Staphylococcus aureus for CC1CC(C)CN(C(=N)c2ccc3cc(-c4ccc(Oc5ccc(-c6cc7ccc(C(=N)N8CC(C)CC(C)C8)cc7[nH]6)cc5)cc4)[nH]c3c2)C1 (centres undefined) here.
Key: 16

Exercise: Enter recorded MIC with Staphylococcus aureus for `CC1CCN(C(=N)c2ccc3cc(-c4ccc(Oc5ccc(-c6cc7ccc(C(=N)N8CCC(C)CC8)cc7[nH]6)cc5)cc4)[nH]c3c2)CC1` here.
Key: 16

Exercise: Enter recorded MIC with Staphylococcus aureus for C[C@H]1COc2c(N3CCN(C)CC3)c(F)cc3c(=O)c(C(=O)O)cn1c23.C[C@H]1COc2c(N3CCN(C)CC3)c(F)cc3c(=O)c(C(=O)O)cn1c23.O [LEVOFLOXACIN] here.
Key: 32

Exercise: Enter recorded MIC with Staphylococcus aureus for `CCC(CC)NC(=N)c1ccc2cc(-c3ccc(Oc4ccc(-c5cc6ccc(C(=N)NC(CC)CC)cc6[nH]5)cc4)cc3)[nH]c2c1` here.
Key: 2

====

I'd be grateful if you could share measured MIC for these entries.
- Tested on: Enterococcus faecalis
- method: Antibacterial activity against vancomycin-resistant Enterococcus faecalis 09-9 by agar dilution method
- Assay type: functional

Exercise: Look up and state reported MIC for `CC(C)NC(=N)c1ccc2cc(-c3ccc(Oc4ccc(-c5cc6ccc(C(=N)NC(C)C)cc6[nH]5)cc4)cc3)[nH]c2c1`
Key: 2 µg/mL

Exercise: Look up and state reported MIC for `N=C(c1ccc2cc(-c3ccc(Oc4ccc(-c5cc6ccc(C(=N)N7CCCC7)cc6[nH]5)cc4)cc3)[nH]c2c1)N1CCCC1`
Key: 32 µg/mL

Exercise: Look up and state reported MIC for `C[C@H]1COc2c(N3CCN(C)CC3)c(F)cc3c(=O)c(C(=O)O)cn1c23.C[C@H]1COc2c(N3CCN(C)CC3)c(F)cc3c(=O)c(C(=O)O)cn1c23.O`
Key: 128 µg/mL

Exercise: Look up and state reported MIC for `N=C(c1ccc2cc(-c3ccc(Oc4ccc(-c5cc6ccc(C(=N)N7CCOCC7)cc6[nH]5)cc4)cc3)[nH]c2c1)N1CCOCC1`
Key: 16 µg/mL

Exercise: Look up and state reported MIC for `N=C(NC1CCCCC1)c1ccc2cc(-c3ccc(Oc4ccc(-c5cc6ccc(C(=N)NC7CCCCC7)cc6[nH]5)cc4)cc3)[nH]c2c1`
Key: 8 µg/mL

====

I'd be grateful if you could share measured MIC for these entries.
- Tested on: Staphylococcus epidermidis
- method: Antibacterial activity against methicillin-sensitive Staphylococcus epidermidis 09-9 by agar dilution method
- Format: functional
Answer with a number only, understood to be in µg/mL.

Exercise: Look up and state reported MIC for `CCC(CC)NC(=N)c1ccc2cc(-c3ccc(Oc4ccc(-c5cc6ccc(C(=N)NC(CC)CC)cc6[nH]5)cc4)cc3)[nH]c2c1`
Key: 2

Exercise: Look up and state reported MIC for `CC1CCN(C(=N)c2ccc3cc(-c4ccc(Oc5ccc(-c6cc7ccc(C(=N)N8CCC(C)CC8)cc7[nH]6)cc5)cc4)[nH]c3c2)CC1`
Key: 8

Exercise: Look up and state reported MIC for `N=C(NC1CCCCC1)c1ccc2cc(-c3ccc(Oc4ccc(-c5cc6ccc(C(=N)NC7CCCCC7)cc6[nH]5)cc4)cc3)[nH]c2c1`
Key: 2

Exercise: Look up and state reported MIC for CC1CC(C)CN(C(=N)c2ccc3cc(-c4ccc(Oc5ccc(-c6cc7ccc(C(=N)N8CC(C)CC(C)C8)cc7[nH]6)cc5)cc4)[nH]c3c2)C1 (configuration not stated)
Key: 64

Exercise: Look up and state reported MIC for `CCNC(=N)c1ccc2cc(-c3ccc(Oc4ccc(-c5cc6ccc(C(=N)NCC)cc6[nH]5)cc4)cc3)[nH]c2c1`
Key: 1

Exercise: Look up and state reported MIC for `CNC(=N)c1ccc2cc(-c3ccc(Oc4ccc(-c5cc6ccc(C(=N)NC)cc6[nH]5)cc4)cc3)[nH]c2c1`
Key: 1

Exercise: Look up and state reported MIC for `CC(C)NC(=N)c1ccc2cc(-c3ccc(Oc4ccc(-c5cc6ccc(C(=N)NC(C)C)cc6[nH]5)cc4)cc3)[nH]c2c1`
Key: 1
